Exercise: for every item that follows, state its recorded β2 Int Act.
STUDY SYSTEM: Adrenergic β2 (Homo sapiens, UniProt P07550)
Construct: endogenous in cells; host or cells: H292 cells
Sequence (P07550 whole entry): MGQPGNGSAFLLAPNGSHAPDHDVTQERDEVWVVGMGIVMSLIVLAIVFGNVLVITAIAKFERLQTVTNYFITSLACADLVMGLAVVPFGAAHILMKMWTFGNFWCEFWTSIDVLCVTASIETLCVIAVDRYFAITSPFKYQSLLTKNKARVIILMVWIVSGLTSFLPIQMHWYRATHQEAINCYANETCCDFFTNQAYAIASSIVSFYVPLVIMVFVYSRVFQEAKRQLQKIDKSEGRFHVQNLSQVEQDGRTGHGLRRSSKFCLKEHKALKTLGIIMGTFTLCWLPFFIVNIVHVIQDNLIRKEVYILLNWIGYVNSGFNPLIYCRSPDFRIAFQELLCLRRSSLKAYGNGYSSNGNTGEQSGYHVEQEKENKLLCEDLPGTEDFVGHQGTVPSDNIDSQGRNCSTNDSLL
PROTOCOL SUMMARY: Alternative adrenergic β2 mediated cAMP production in H292 cells (AlphaScreen cAMP detection)
Assay type: cell-based
CONDITION DETAILS: fraction relative to the maximum activity determined for formoterol, 60 minutes incubation
Protocol: Alternative Adrenergic β2 Mediated cAMP Production Cell Preparation H292 cells were grown in 225 cm2 flasks incubator at 37° C., 5% CO2 in RPMI medium containing, 10% (v/v) FBS (foetal bovine serum) and 2 mM L-glutamine. […] The concentration of cAMP (cyclic adenosine monophosphate) in the cell lysate was determined using AlphaScreen™ methodology. […] Intrinsic Activity was expressed as a fraction relative to the maximum activity determined for formoterol in each experiment.
Counter-ions that a name gives are not always drawn.
Numbers only.

Below are worked cases with known answers.
• CCN(CC)CCN(CCNCCc1ccc(O)c2[nH]c(=O)sc12)C(=O)CCOCCc1ccc(Cl)c(Cl)c1 [Example 27, dihydrobromide] = 0.6
• O=c1[nH]c2c(O)ccc(CCNCCN(CCCOCCc3ccccc3)CCc3ccccc3)c2s1 = 0.5
• O=C(CCOCCc1ccc(Br)cc1)N(CCNCCc1ccc(O)c2[nH]c(=O)sc12)CCc1ccccc1 = 0.7
• CCN(CC)CCN(CCNCCc1ccc(O)c2[nH]c(=O)sc12)C(=O)CCOCCc1ccccc1C(F)(F)F [Example 17, ditrifluoroacetate] = 0.9
• CCN(CC)CCN(CCNCCc1ccc(O)c2[nH]c(=O)sc12)C(=O)CCOCCc1ccc(O)cc1 [Example 19, ditrifluoroacetate] = 0.8

Batch request: β2 Int Act per item, same order as input.
1. CCN(CC)CCN(CCNCCc1ccc(O)c2[nH]c(=O)sc12)C(=O)CCOCCc1cccc(C)c1
2. CCN(CC)CCN(CCNCCc1ccc(O)c2[nH]c(=O)sc12)C(=O)CCOCCc1cccc(O)c1 [Example 29, dihydrobromide]
3. CCN(CC)CCN(CCNCCc1ccc(O)c2[nH]c(=O)sc12)C(=O)CCOCCc1c(Cl)cccc1Cl [Example 24, dihydrobromide]
4. CCN(CC)CCN(CCNCCc1ccc(O)c2[nH]c(=O)sc12)C(=O)CCOCCc1cccc(C(F)(F)F)c1 [Example 25, dihydrobromide]
5. CN(C)CCN(CCNCCc1ccc(O)c2[nH]c(=O)sc12)C(=O)CCOCCc1ccccc1

### Response
1: 0.6; 2: 0.8; 3: 0.9; 4: 0.8; 5: 1

I would be grateful if you could provide β2 Int Act for each of the following entries.
1. CCN(CC)CCN(CCNCCc1ccc(O)c2[nH]c(=O)sc12)C(=O)CCOCCc1cccc(F)c1 [Example 22, dihydrobromide]
2. CCN(CC)CCN(CCNCCc1ccc(O)c2[nH]c(=O)sc12)C(=O)CCOCCc1ccccc1
3. CCN(CC)CCN(CCNCCc1ccc(O)c2[nH]c(=O)sc12)C(=O)CCOCCc1ccc(Cl)cc1 [Example 26, dihydrobromide]
4. CCN(CC)CCN(CCNCCc1ccc(O)c2[nH]c(=O)sc12)C(=O)CCOCCc1cc(OC)ccc1Br [Example 21, dihydrobromide]
5. CCN(CC)CCN(CCNCCc1ccc(O)c2[nH]c(=O)sc12)C(=O)CCOCCc1ccc2ccccc2c1
6. CCN(CC)CCN(CCNCCc1ccc(O)c2[nH]c(=O)sc12)C(=O)CCOCCc1cccc(Cl)c1Cl [Example 20, ditrifluoroacetate]
7. CCN(CC)CCN(CCNCCc1ccc(O)c2[nH]c(=O)sc12)C(=O)CCOCCc1cccc(Cl)c1 [Example 18, ditrifluoroacetate]

### Response
[0.8, 0.8, 0.6, 0.6, 0.5, 0.6, 0.7]

For reference, reported β2 Int Act for CCN(CC)CCN(CCNCCc1ccc(O)c2[nH]c(=O)sc12)C(=O)CCOCCc1ccccc1Cl [Example 31, ditrifluoroacetate] stands at 0.9
